B1: HDV Ribozyme (parent)
chain: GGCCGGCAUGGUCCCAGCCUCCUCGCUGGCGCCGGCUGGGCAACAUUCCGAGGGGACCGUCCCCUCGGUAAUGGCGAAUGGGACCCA

- Variants of: B1
- MEASUREMENT PROTOCOL: self-cleavage, relative activity (ratio to wild type); higher = more cleavage; co-transcriptional
Quick reference for self-cleavage among some variants
Provide a numeric answer; units are not to be included.

These solved cases illustrate the format of a correct answer.
> print(dat)
                             chain.sequence  property.measured  data.value
1  GGCCGGCAUGGUCCCAGCCUCCUCGCUGGCGCCGGCUGGGCAACAUUCCGCGGGGACCGUCCCCUUGGUAAUGGCGAAUGGGACCCA [A51C C66U]      self-cleavage       0.974
2  GGCCGGCAUGGUCCCAGCCUCCUCGCCGGCGCCGGCUGGGCAACAGUCCGAGGGGACCGUCCCCUCGGUAAUGGCGAAUGGGACCCA [U27C U46G]      self-cleavage       0.332
3  GGCCGGCAUGGUCCCAGCCUCCUCGCUGGCGCCGGCUGGGCAGCAUUCCGAGGGGACCGUCCCCUCAGUAAUGGCGAAUGGGACCCA [A43G G67A]      self-cleavage       0.804
4  GGCCGGCAUGGUCCCAGCCUCCUCGCUGGCGCCGGCUGGGCAACAUUCGGAGGGGUCCGUCCCCUCGGUAAUGGCGAAUGGGACCCA [C49G A56U]      self-cleavage        0.96
5  GGCCGGCAUGGUCCCAGCCUCCUCGCGGGCGCCGGCUGGGCAACAUUCCGAGGGGAACGUCCCCUCGGUAAUGGCGAAUGGGACCCA [U27G C57A]      self-cleavage        1.22

# self-cleavage (variant: AGCCGGCAUGUUCCCAGCCUCCUCGCUGGCGCCGGCUGGGCAACAUUCCGAGGGGACCGUCCCCUCGGUAAUGGCGAAUGGGACCCA [G1A G11U] ) is 0.0992

Consider GGCCGGCAUGGUCCCAGCCUCCUCGCUGGCGCCGGCUGGGCAACAUUCUGAGGGGACCGUCCCCUCGGUAGUGGCGAAUGGGACCCA [C49U A71G] . Its measured self-cleavage is 1.16

# credit: the RNAGym collection of RNA variant scans (doi:10.7554/elife.80360)
